subject.of.test: T1, Knl1 residues 1870–2342 (human, UniProt Q8NG31 1870-2342)
T1 construct: Knl1, human, 2,342-residue protein, residues 1870-2342; coordinates traced R2097–H2342; Subunit within the KMN network cryo-EM sample; also called extended version of the Knl1 C terminus; source: High-5 insect cells, expressed and purified as part of KNL1C
T1 sequence (looked up): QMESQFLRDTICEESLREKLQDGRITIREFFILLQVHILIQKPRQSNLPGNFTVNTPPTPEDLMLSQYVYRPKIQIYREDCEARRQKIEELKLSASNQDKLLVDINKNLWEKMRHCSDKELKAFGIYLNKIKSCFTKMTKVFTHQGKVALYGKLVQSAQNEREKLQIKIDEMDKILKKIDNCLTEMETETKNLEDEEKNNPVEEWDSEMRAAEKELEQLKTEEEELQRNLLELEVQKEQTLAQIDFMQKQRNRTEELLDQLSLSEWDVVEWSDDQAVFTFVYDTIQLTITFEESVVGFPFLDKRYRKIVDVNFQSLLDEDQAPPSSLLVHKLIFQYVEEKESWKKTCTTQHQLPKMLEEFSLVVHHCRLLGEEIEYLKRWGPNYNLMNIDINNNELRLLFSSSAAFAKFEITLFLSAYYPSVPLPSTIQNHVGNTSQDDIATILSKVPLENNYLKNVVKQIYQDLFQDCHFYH
protocol.summary: cryo-EM structure; NDC80C, MIS12C and KNL1C mixed 1:1:1 and run on Superose 6 in 20 mM HEPES pH 8.0, 80 mM NaCl, 1 mM MgCl2, 1 mM TCEP; about 1 mg/ml on UltrAuFoil grids; 3.0 Å (MIS12C heads 3.8 Å)
condition.details: both partners purified
readout.kind: binding result

| binder | readout.kind | reported |
| --- | --- | --- |
| Pmf1 (natural protein, Homo sapiens, UniProt Q6P1K2 1-205, looked up, Pmf1, subunit of human MIS12C; Subunit within the KMN network cryo-EM sample; source: High-5 insect cells, expressed and purified as part of MIS12C) MAEASSANLGSGCEEKRHEGSSSESVPPGTTISRVKLLDTMVDTFLQKLVAAGSYQRFTDCYKCFYQLQPAMTQQIYDKFIAQLQTSIREEISDIKEEGNLEAVLNALDKIVEEGKVRKEPAWRPSGIPEKDLHSVMAPYFLQQRDTLRRHVQKQEAENQQLADAVLAGRRQVEELQLQVQAQQQAWQALHREQRELVAVLREPE | binding result | binds |

Reference for the values: paper PMC11189301
